- study.system: HA of ca A/Wuhan/359/95 (H3N2) (influenza A virus)
- assay.text: cell-based or functional assay
readout.kind: Neutralization IC50, H3-WH95 (µg/mL)
Just the number please, in µg/mL, no unit attached.

Dear colleague, I am looking for the recorded Neutralization IC50, H3-WH95 of the following binder: Antibody 3 (antibody, V domains shown) VH: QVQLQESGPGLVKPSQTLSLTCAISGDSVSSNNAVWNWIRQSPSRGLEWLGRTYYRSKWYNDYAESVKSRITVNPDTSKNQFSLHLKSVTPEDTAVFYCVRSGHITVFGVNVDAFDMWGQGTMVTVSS VL: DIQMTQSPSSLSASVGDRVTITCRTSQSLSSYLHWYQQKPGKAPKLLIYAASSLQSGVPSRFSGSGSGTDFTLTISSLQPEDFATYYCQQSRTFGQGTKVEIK
3.96

Recorded values, source patent US20160257732A1.
